Biological target: GST-tagged truncated LRRK2 (Homo sapiens)
Construct: GST-tagged truncated LRRK2 from Invitrogen (Cat # PV4874); GST
Sequence (Q5S007 970-2527 limits assumed): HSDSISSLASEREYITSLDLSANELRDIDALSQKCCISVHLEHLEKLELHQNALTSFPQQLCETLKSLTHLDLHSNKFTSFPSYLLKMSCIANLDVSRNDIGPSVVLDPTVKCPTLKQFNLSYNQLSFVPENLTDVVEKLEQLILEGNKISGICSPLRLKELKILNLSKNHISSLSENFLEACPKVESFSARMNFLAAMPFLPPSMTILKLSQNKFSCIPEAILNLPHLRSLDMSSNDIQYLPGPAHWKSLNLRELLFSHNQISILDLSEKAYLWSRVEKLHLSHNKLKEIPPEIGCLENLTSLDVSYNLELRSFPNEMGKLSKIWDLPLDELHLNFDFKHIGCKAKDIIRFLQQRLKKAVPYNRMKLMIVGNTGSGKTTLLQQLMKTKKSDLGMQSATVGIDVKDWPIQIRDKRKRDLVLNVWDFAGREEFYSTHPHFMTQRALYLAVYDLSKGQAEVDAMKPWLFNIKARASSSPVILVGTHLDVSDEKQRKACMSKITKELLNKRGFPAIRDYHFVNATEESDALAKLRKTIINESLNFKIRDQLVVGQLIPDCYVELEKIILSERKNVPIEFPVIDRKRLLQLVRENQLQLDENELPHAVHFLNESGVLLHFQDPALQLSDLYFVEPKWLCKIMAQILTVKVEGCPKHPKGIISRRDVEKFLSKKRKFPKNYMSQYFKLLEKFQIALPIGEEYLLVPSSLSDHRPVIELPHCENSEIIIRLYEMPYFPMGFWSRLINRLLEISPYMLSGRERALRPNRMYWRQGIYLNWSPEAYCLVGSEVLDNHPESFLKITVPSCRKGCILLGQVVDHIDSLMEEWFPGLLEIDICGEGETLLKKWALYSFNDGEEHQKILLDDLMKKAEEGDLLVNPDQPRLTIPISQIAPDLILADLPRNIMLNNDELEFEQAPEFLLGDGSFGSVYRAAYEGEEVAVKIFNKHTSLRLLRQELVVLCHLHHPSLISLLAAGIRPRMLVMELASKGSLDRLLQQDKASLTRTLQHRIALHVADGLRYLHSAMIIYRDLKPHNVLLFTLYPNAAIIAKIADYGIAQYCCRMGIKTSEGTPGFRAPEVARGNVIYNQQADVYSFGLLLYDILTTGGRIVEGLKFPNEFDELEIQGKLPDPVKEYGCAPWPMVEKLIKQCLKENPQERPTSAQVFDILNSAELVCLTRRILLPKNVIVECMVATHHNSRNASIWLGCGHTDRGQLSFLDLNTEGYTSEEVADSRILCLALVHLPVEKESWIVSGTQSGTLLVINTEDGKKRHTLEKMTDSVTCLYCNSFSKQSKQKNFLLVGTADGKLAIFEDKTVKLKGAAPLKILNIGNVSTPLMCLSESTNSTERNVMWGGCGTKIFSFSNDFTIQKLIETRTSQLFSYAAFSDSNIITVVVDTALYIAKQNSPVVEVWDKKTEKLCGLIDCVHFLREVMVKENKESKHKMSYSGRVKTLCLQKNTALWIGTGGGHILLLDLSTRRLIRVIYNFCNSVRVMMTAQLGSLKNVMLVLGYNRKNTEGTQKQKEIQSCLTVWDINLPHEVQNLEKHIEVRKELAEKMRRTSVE
Experiment: LRRK2 kinase assay (Lantha Screen)
Settings: 1 mM ATP (head); a = geometric mean of >=4 determinations, b = single determination; read-out: LRRK2 LANTHA EC50 at 1 mM ATP; Geometric mean of 2-3 determinations unless otherwise indicated
Measure: pEC50
pEC50 here: minus log base 10 of the concentration, concentration in moles per litre.

Completed entries (count: 2):
N#Cc1cccc(-c2c[nH]c3nccc(N4CCC(O)CC4)c23)c1
7.07
OCc1cccc(-c2c[nH]c3nccc(N4CCOCC4)c23)c1
7.02

Ask: Given COc1cccc(-c2c[nH]c3nccc(N4CCOCC4)c23)c1 , state its recorded pEC50.
Result: 6.91
